Tested On: HLA DRB1*0701 (human)
Experimental Parameters: modification not given
pIC50: −log10 of the molar value.
Measured Endpoint: pIC50

[[record]]
binder = "YQQGVTVDSIGM [24.3]"
measured_endpoint = "pIC50"
reported = 6.41

